The reported numbers originate from ChEMBL document CHEMBL1201862.

biological target: UniProt P05186; assay: potency against alkaline phosphatase TNAP – biochemical, luminescent, dose response, SAR follow-up (AID 1056)
Sequence (P05186 whole entry): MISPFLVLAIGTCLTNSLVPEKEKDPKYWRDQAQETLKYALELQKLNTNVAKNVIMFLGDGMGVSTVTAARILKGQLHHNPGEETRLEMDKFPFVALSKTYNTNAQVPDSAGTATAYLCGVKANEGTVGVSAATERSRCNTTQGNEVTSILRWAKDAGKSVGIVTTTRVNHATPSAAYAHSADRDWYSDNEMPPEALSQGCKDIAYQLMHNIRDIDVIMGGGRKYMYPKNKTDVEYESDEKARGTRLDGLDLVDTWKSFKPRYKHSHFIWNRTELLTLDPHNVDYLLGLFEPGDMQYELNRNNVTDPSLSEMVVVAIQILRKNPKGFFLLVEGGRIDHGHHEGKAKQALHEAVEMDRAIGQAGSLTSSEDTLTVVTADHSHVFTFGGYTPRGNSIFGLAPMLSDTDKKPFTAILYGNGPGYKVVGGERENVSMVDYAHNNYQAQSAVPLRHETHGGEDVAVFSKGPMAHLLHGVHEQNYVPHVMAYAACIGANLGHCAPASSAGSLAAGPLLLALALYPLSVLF
Calls of active or inactive are those of the source.
Thanks in advance; please answer with one of these: T for active, F for inactive

Past entries and their recorded results:
CCCCN1C(=O)/C(=N\Nc2ccccc2C)c2ccccc21 T
COc1cccc(S(=O)(=O)Nc2ccncn2)c1 F

stdin: Each molecule tested received a call. Report the one for CCn1c(SCC(=O)c2ccc(O)c(O)c2)nnc1-c1ccc(C)cc1 .
stdout: F

stdin: Which outcome was entered for the molecule Cc1c(C(=O)O)nnn1-c1ccc(Cl)cc1 in this test?
stdout: F

====

target: Cytochrome P450 3A4 (Homo sapiens, UniProt P08684); conditions: Potency;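 further: confirmatory qHTS run detecting inhibitors and substrates of CYP3A4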
Sequence (P08684 whole entry): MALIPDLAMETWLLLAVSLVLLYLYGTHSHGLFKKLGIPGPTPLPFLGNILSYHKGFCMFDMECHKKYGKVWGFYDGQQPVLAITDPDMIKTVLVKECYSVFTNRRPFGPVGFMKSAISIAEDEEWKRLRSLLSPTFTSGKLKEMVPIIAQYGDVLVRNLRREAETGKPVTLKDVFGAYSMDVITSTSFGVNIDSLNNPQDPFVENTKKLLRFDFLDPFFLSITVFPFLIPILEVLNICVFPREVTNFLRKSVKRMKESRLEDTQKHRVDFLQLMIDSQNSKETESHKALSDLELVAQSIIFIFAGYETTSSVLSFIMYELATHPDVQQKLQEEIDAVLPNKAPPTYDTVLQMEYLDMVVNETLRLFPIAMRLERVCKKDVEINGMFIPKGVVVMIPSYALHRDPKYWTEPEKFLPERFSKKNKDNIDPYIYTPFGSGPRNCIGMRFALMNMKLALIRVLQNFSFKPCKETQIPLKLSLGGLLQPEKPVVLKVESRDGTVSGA
AC50 by entry:

A selection of reference data follows.
Compound	Result
COc1ccc2c(=O)cc(-c3ccccc3)oc2c1O	39.8 µM (inconclusive)
O=C(O[C@@H]1Cc2c(O)cc(O)cc2OC1c1ccc(O)c(O)c1)c1cc(O)c(O)c(O)c1 (stereo partly drawn)	25.1 µM (inconclusive)
COCCN(CCOC)c1nc(C)nc2c1nc(-c1ccccc1)n2CCCN(C)C	7.94 µM (inconclusive)
CCOC(=O)OCC1OC(C#Cc2ccc(Br)cc2)C=CC1OC(=O)OCC (stereo not drawn)	3.98 µM (inconclusive)
CC1(C)C(O)CC(O)[C@]2(C)C1CC(O)[C@]1(C)C2CC[C@@]2(C)C(c3ccoc3)CC3OC312 (stereo partly drawn)	3.16 µM (inconclusive)
CCCCN(CC)c1c([N+](=O)[O-])cc(C(F)(F)F)cc1[N+](=O)[O-]	15.8 µM (inconclusive)
CC1CCC2C(=O)OC(CN3C(=O)c4ccccc4C3=O)CN2C1c1ccc(Br)cc1 (stereo not drawn)	3.98 µM (inconclusive)

stdin: Identify AC50 associated with the compound Cc1cc(=O)oc2c(O)c(O)ccc12
stdout: 25.1 µM (inconclusive)

====

List of IC50 values.
target: UniProt P11940; assay: MLLE binding blockers, Cy5 peptide tracer – biochemical, fluorescence polarization, Cy5-PAM2 peptide, secondary, miRNA deadenylation inhibitor project, dose response (AID 602260); assay type: functional; conditions: read-out: IC50_Mean
Sequence (P11940 whole entry): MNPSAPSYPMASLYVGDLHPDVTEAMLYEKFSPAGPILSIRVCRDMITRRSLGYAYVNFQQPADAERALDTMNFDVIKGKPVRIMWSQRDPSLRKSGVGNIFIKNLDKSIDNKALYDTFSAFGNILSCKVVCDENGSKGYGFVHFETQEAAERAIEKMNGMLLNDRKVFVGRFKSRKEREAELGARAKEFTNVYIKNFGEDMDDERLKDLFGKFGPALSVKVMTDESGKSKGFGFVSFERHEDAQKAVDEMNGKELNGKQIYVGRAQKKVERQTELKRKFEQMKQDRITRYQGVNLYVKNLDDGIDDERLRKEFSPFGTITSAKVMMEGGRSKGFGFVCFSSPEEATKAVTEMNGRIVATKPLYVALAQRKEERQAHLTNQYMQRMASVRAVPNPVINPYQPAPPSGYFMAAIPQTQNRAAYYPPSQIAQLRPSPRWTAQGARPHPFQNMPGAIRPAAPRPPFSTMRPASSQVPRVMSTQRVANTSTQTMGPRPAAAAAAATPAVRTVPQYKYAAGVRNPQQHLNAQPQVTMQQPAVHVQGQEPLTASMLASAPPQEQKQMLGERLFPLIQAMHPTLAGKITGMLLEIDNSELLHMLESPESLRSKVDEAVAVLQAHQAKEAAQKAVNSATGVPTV
Calls of active or inactive are those of the source.

Cn1nnc(NC(=S)NC(=O)c2ccc3ccccc3c2)n1 > 66 µM (inactive)
COC(=O)/C=C1\SC(NC(=O)c2ccc(C)cc2)=NC1=O > 66 µM (inactive)
CCNC(=O)c1sc(=S)n(-c2ccc(C)cc2)c1N > 66 µM (inactive)
CCN1C(=O)/C(=C2\Sc3ccccc3N2CC)OC1=S > 66 µM (inactive)
Cc1ccc(CNC(=O)CSc2nccn(-c3ccc(C)c(F)c3)c2=O)cc1 > 66 µM (inactive)

stdin: Specify measured IC50 for Cc1c(NC(=S)NC(=O)c2cc3ccccc3o2)cccc1C(=O)O .
stdout: > 66 µM (inactive)

stdin: Provide one value: measured IC50 of O=Cc1ccc(OC(=O)c2cc(Cl)nc3ccccc23)cc1
stdout: > 66 µM (inactive)

stdin: Report measured IC50; entry is COc1ccc(Cl)cc1NC(=O)CN(C(=O)c1ccco1)C1CCCCC1
stdout: > 66 µM (inactive)

stdin: Give IC50 for O=[N+]([O-])c1c(NCCCO)cc(SCc2ccco2)c2nonc12
stdout: > 66 µM (inactive)

stdin: Identify the reported IC50 for the following entry. C=CCn1c(O)c(N=NC(S)=Nc2ccccc2F)c2ccccc21
stdout: > 66 µM (inactive)

stdin: Give IC50 for the following compound: CCOc1ccc2c(c1)n([O-])c1c([n+]2=O)CCCC1
stdout: > 66 µM (inactive)
